- System: HEK293
- assay.explanation: Cytotoxic Profiling of Annotated Libraries Using Quantitative High-Throughput Screening (AID 1296008); note: % is set by controls: 0 for no effect and ±100 for the full control effect; nearly all actives have a fitted effect of over 60% in size
- conditions: Five cell lines viability, CellTiter-Glo ATP luminescence, 48-72 h; hits give low values
- Method: Cell-based phenotypic screening is a commonly used approach to discover biological pathways, novel drug targets, chemical probes and high-quality hit-to-lead molecules. […] A pintool (Kalypsys) was used to transfer 23 nL of compound solution to the 1536-well assay plates. […] Plates were left at room temperature for 10 min before imaging the ATP-coupled luminescence using a ViewLux microplate imager (PerkinElmer, Waltham, MA).
Results filed as inconclusive are left out.

compound	quantity.unit	max response
CCOc1ccc(-c2cc(NC(=O)c3c(F)cccc3F)c(C(=O)O)s2)cc1	%	1.07
CCCN(CCN1CCN(c2ccccc2OC)CC1)C1CCc2ncsc2C1 (stereo not drawn)	%	0.117
COc1ccc(C(=O)CC(=O)O)c2c1C=CC(C)(C)O2	%	-7.49
O=C(Cc1ccccc1)OC[C@H]1O[C@H](O[C@H]2O[C@H](CO)[C@@H](O)[C@H](O)[C@H]2O)[C@H](O)[C@@H](O)[C@@H]1O	%	4.52
CC(C)c1ccc2c(c1)C(=O)CC1C(C)(C(=O)O)CCCC21C (stereo not drawn)	%	-1.52
CC(=O)OC1C(O)/C(C)=C\C2C(OC(=O)c3ccccc3)C(C)CC2(OC(C)=O)C(OC(C)=O)C(C)/C=C/C(C)(C)C1OC(C)=O (stereo not drawn)	%	-2.9
OC[C@@]1(O)CO[C@H](OC[C@H]2O[C@@H](OC(CCCCc3ccc(O)cc3)CCc3ccc(O)cc3)[C@H](O)[C@@H](O)[C@@H]2O)[C@@H]1O (stereo partly drawn)	%	-4.6
CC(C)CC[C@@H](O)[C@](C)(O)[C@H]1CC[C@@]2(O)C3=CC(=O)[C@@H]4C[C@@H](O)[C@@H](O)C[C@]4(C)[C@H]3CC[C@]12C	%	3.83
C=CC(C)(O)CC/C=C(\C)C1CC=C(C)C(=O)O1 (stereo not drawn)	%	-4.28
CCCNCCOc1ccc(NC(=O)c2c[nH]c3c2C(=O)CCC3)cc1F	%	-31.5
CCC1(O)CC2c3cc(OC)c(OC)cc3CCN2CC1CC(C)C (stereo not drawn)	%	0.903
COC(=O)C1=CO[C@@H](O[C@@H]2O[C@H](CO)[C@@H](O)[C@H](O)[C@H]2O)[C@H]2[C@@H]1[C@H](O)C[C@]2(C)O	%	-1.47
CN1CCCC1Cc1c[nH]c2ccc(CCS(=O)(=O)c3ccccc3)cc12 (stereo not drawn)	%	-7.1
O=C(O)CCc1cc2ccoc2cc1O[C@@H]1O[C@H](CO)[C@@H](O)[C@H](O)[C@H]1O	%	1.52
COC(=O)[C@]1(C)CCC[C@@]2(C)C(=O)CC[C@H]3C(=O)C=C(CC[C@@H]21)C3O (stereo partly drawn)	%	-5.09
CC1(CO)CCCC2(C)C1C(OC(=O)c1ccccc1)CC1C(=O)OCC12O (stereo not drawn)	%	-0.598
COC(=O)C1=CO[C@@H](O[C@@H]2O[C@H](CO)[C@@H](O)[C@H](O)[C@H]2O)[C@@H]2[C@@H](C)[C@@H](OC(=O)/C=C/c3ccccc3)[C@@H](O)[C@H]12	%	-9.01
COC(=O)[C@H](Cc1cccc(C(=N)N)c1)[C@@H](C)NC(=O)c1ccc(-c2cc[n+]([O-])cc2)cc1	%	3.53

* * *

- Tested on: Zika virus NS2B-NS3 protease (unlinked complex)
- assay.explanation: Primary screen GU Rhodamine qHTS for Zika virus inhibitors: Unlinked NS2B-NS3 protease assay (AID 1347159); note: nearly all actives have a fitted effect of over 60% in size
- conditions: Recombinant ZIKV NS2B-NS3 protease, Rhodamine110 substrate fluorescence; series mostly up to 107 µM
Results filed as inconclusive are left out. Calls of active or inactive are those of the source. Calls come from the whole dose curve; as a rule, active = well fitted inhibition curve with a large enough effect; inconclusive = small, poorly fitted or top-dose-only effect; inactive = no such curve, though single readings can be large or run the other way.
Labels: yes for active, no for inactive

compound	category.label
C/C(=C\CC/C(C)=C/CC[C@]1(C)CCc2cc(O)cc(C)c2O1)CC/C=C(\C)C(=O)O	yes
O=C(Nc1ccn(Cc2c(F)cccc2C(F)(F)F)n1)c1c(F)cccc1F	no
O=C(O)c1cc(C(F)(F)F)ccc1N1CC[C@H](OCc2ccccn2)C1	no
C/C(=C\CO)CC/C=C(\C)C(=O)O[C@@H]1O[C@H](CO)[C@@H](O)[C@H](O)[C@H]1O	no
C=C1CCC2C(C)(C)CC(=O)CC2(C)C1CCC(C)CCO (configuration not stated)	yes
O=C(Cc1ccccc1)OC[C@H]1O[C@H](O[C@H]2O[C@H](CO)[C@@H](O)[C@H](O)[C@H]2O)[C@H](O)[C@@H](O)[C@@H]1O	no
CCCCNc1nc(N)c2[nH]c(=O)n(Cc3ccc(OCCN(C)C)nc3)c2n1	no
O=C(/C=C/c1ccc(O)cc1)OC[C@H]1O[C@H](O[C@@]2(CO)O[C@@H](CO)[C@H](O)[C@H]2O)[C@H](O)[C@@H](O)[C@@H]1O	no
CN1CCc2cc(Cl)c(O)cc2[C@@H](c2cccc3c2OCC3)C1	no
C#CCCCn1cc(-c2cccc3c2N[C@@H](C)CC(=O)N3)cn1	no
CC(C)=C1CC2C(CCC2(C)O)C(C)(O)CC1=O (configuration not stated)	no
NC(N)=NCCC[C@H](NC(=O)c1sccc1NS(=O)(=O)c1cccc2nsnc12)C(=O)O	no
